- Test system: Enterococcus sp.
- assay.info: In vitro antibacterial evaluation: minimum inhibitory concentration (MIC), broth dilution method
- Format: cell-based
- details: Enterococcus avium (GC 4558); 18 hours at 35° C.
readout.name: MIC Enterococcus avium (GC 4558) (µg/mL)
Report the value in µg/mL with no unit label.

[[record]]
compound = "CC(c1ccccc1)C1NC(=O)CNC(=O)C(CO)NC(=O)C(C(O)C2CNC(=N)N2C2OC(CO)C(O)C(O)C2O)NC(=O)C(C(O)C2CNC(=N)N2)NC(=O)C(Cc2ccc(OC3OC(CO)C(OC4OC(CO)C(O)C(OCc5ccc(OCc6ccccc6)cc5)C4O)C(O)C3O)cc2)NC1=O (stereo not shown) [Example 231c]"
readout_name = "MIC Enterococcus avium (GC 4558)"
unit_symbol = "µg/mL"
numeric_result = 4

[[record]]
compound = "COc1ccc(COCC2OC(OC3C(CO)OC(Oc4ccc(CC5NC(=O)C(C(C)c6ccccc6)NC(=O)CNC(=O)C(CO)NC(=O)C(C(O)C6CNC(=N)N6C6OC(CO)C(O)C(O)C6O)NC(=O)C(C(O)C6CNC(=N)N6)NC5=O)cc4)C(O)C3O)C(O)C(O)C2O)c2ccccc12 (stereo not shown)"
readout_name = "MIC Enterococcus avium (GC 4558)"
unit_symbol = "µg/mL"
numeric_result = 4

[[record]]
compound = "CC(c1ccccc1)C1NC(=O)CNC(=O)C(CO)NC(=O)C(C(O)C2CN(c3ncccn3)C(=N)N2C2OC(CO)C(O)C(O)C2O)NC(=O)C(C(O)C2CNC(=Nc3ncccn3)N2)NC(=O)C(Cc2ccc(OC3OC(CO)C(OC4OC5COC6(OC5C(O)C4O)C4CC5CC(C4)CC6C5)C(O)C3O)cc2)NC1=O (stereo not shown)"
readout_name = "MIC Enterococcus avium (GC 4558)"
unit_symbol = "µg/mL"
numeric_result = 8

[[record]]
compound = "CC(c1ccccc1)C1NC(=O)CNC(=O)C(CO)NC(=O)C(C(O)C2CNC(=N)N2C2OC(CO)C(O)C(O)C2O)NC(=O)C(C(O)C2CNC(=N)N2)NC(=O)C(Cc2ccc(OC3OC(CO)C(OC4OC5COC6(CC7CCC6(C)C7(C)C)OC5C(O)C4O)C(O)C3O)cc2)NC1=O (stereo not shown)"
readout_name = "MIC Enterococcus avium (GC 4558)"
unit_symbol = "µg/mL"
numeric_result = 0.5

[[record]]
compound = "CC(c1ccc(Cl)cc1)C1NC(=O)CNC(=O)C(CO)NC(=O)C(C(O)C2CNC(=N)N2C2OC(CO)C(O)C(O)C2O)NC(=O)C(C(O)C2CNC(=N)N2)NC(=O)C(Cc2ccc(OC3OC(CO)C(OC4OC5COC(C6CCCCC6)OC5C(O)C4O)C(O)C3O)cc2)NC1=O (stereo not shown)"
readout_name = "MIC Enterococcus avium (GC 4558)"
unit_symbol = "µg/mL"
numeric_result = 2

[[record]]
compound = "N=C1NCC(C(O)C2NC(=O)C(Cc3ccc(OC4OC(CO)C(OC5OC6COC(Cc7ccccc7)OC6C(O)C5O)C(O)C4O)cc3)NC(=O)C(CC3CCCCC3)NC(=O)CNC(=O)C(CO)NC(=O)C(C(O)C3CNC(=N)N3C3OC(CO)C(O)C(O)C3O)NC2=O)N1 (stereo not shown)"
readout_name = "MIC Enterococcus avium (GC 4558)"
unit_symbol = "µg/mL"
numeric_result = 4


Query (compound): CC(c1ccccc1)C1NC(=O)CNC(=O)C(CO)NC(=O)C(C(O)C2CNC(=N)N2C2OC(CO)C(O)C3OC(C)(C)OC32)NC(=O)C(C(O)C2CNC(=N)N2)NC(=O)C(Cc2ccc(OC3OC(CO)C(OC4OC5COC(C)(C)OC5C5OC(C)(C)OC45)C4OC(C)(C)OC34)cc2)NC1=O (stereo not shown) [Example 229b] ; field requested: MIC Enterococcus avium (GC 4558)
64

---

- Tested on: Staphylococcus sp.
- assay.info: In vitro antibacterial evaluation: minimum inhibitory concentration (MIC), broth dilution method
- Format: cell-based
- details: broth dilution, 18 hours at 35° C.
- Text: […]
# Lookup of reported MIC Coagulase Negative Staphylococcus (GC 4547) keyed by entry
I'd appreciate it if you included the unit after the number.

[[record]]
molecule = "CC(c1ccccc1)C1NC(=O)CNC(=O)C(CO)NC(=O)C(C(O)C2CNC(=N)N2C2OC(CO)C(O)C(O)C2O)NC(=O)C(C(O)C2CNC(=N)N2)NC(=O)C(Cc2ccc3oc(-c4ccc(C(C)(C)C)cc4)nc3c2)NC1=O (centres unmarked)"
system_tested = "Staphylococcus sp."
result = "2 µg/mL"


We now examine a further molecule.
// map CC(c1ccccc1)C1NC(=O)CNC(=O)C(CO)NC(=O)C(C(O)C2CN(Cc3ccccc3)C(=NCc3ccccc3)N2C2OC(CO)C(O)C(O)C2O)NC(=O)C(C(O)C2CN(Cc3ccccc3)C(=NCc3ccccc3)N2Cc2ccccc2)NC(=O)C(Cc2ccc(OC3OC(CO)C(OC4OC5COC6(OC5C(O)C4O)C4CC5CC(C4)CC6C5)C(O)C3O)cc2)NC1=O (centres unmarked) to recorded MIC Coagulase Negative Staphylococcus (GC 4547) (system: Staphylococcus sp.)
4 µg/mL

---

- Tested on: Enterococcus sp.
- assay.info: In vitro antibacterial evaluation: minimum inhibitory concentration (MIC), broth dilution method
- Format: cell-based
- details: Enterococcus faecalis (GC 6189); 18 hours at 35° C.
readout.name: MIC Enterococcus faecalis (GC 6189) (µg/mL)
Report the value in µg/mL with no unit label.

[[record]]
molecule = "CC(c1ccccc1)C1NC(=O)CNC(=O)C(CO)NC(=O)C(C(O)C2CNC(=N)N2C2OC(CO)C(O)C(O)C2O)NC(=O)C(C(O)C2CNC(=N)N2)NC(=O)C(Cc2ccc(OC3OC(CO)C(OC4OC(COCC=C(c5ccccc5)c5ccccc5)C(O)C(O)C4O)C(O)C3O)cc2)NC1=O (stereo not drawn)"
system_tested = "Enterococcus sp."
readout_name = "MIC Enterococcus faecalis (GC 6189)"
numeric_result = 2


Query (molecule): COc1ccc(COCC2OC(OC3C(CO)OC(Oc4ccc(CC5NC(=O)C(C(C)c6ccccc6)NC(=O)CNC(=O)C(CO)NC(=O)C(C(O)C6CNC(=N)N6C6OC(CO)C(O)C(O)C6O)NC(=O)C(C(O)C6CNC(=N)N6)NC5=O)cc4)C(O)C3O)C(O)C(O)C2O)cc1OCc1ccccc1 (stereo not drawn) ; field requested: MIC Enterococcus faecalis (GC 6189)
4

---

- Test system: Enterococcus sp.
- assay.info: In vitro antibacterial evaluation: minimum inhibitory concentration (MIC), broth dilution method
- Type: cell-based
- details: Enterococcus faecium (GC 2243); broth dilution, 18 hours at 35° C.
Numbered stars: 1 amine (or outer) side, 2 acyl side, 3 side chain; on linkers, the order of the positions; unused ones are H or OH. Square brackets hold non-standard residues; d marks the D form. Peptide text beside a SMILES is read from it. ξ: configuration not given here. X1 = N=C1NCC(C(O)C(N[*:1])C(=O)[*:2])N1C1OC(CO)C(O)C(O)C1O; ξEnduracididine(βξ-OH,4'ξ) = N=C1NCC(C(O)C(N)C(=O)O)N1; Cha = N[CH](CC1CCCCC1)C(=O)O
# Lookup of reported MIC Enterococcus faecium (GC 2243) keyed by entry
Report the value in µg/mL with no unit label.

As a guide, the following entries are already answered.
[[record]]
compound = "CC(c1ccccc1)C1NC(=O)CNC(=O)C(CO)NC(=O)C(C(O)C2CNC(=N)N2C2OC(CO)C(O)C(O)C2O)NC(=O)C(C(O)C2CNC(=N)N2)NC(=O)C(Cc2ccc3oc(-c4ccc(Br)cc4)nc3c2)NC1=O (centres unmarked) [Example 27]"
readout_name = "MIC Enterococcus faecium (GC 2243)"
numeric_result = 32

[[record]]
compound = "CC(c1ccccc1)C1NC(=O)CNC(=O)C(CO)NC(=O)C(C(O)C2CNC(=N)N2C2OC(CO)C(O)C(O)C2O)NC(=O)C(C(O)C2CNC(=N)N2)NC(=O)C(Cc2ccc3oc(-c4ccc(C(C)(C)C)cc4)nc3c2)NC1=O (centres unmarked) [Example 32]"
readout_name = "MIC Enterococcus faecium (GC 2243)"
numeric_result = 4

[[record]]
compound = "CC(c1ccccc1)C1NC(=O)CNC(=O)C(CO)NC(=O)C(C(O)C2CNC(=N)N2C2OC(CO)C(O)C(O)C2O)NC(=O)C(C(O)C2CNC(=N)N2)NC(=O)C(Cc2ccc(OC3OC(CO)C(OC4OC5COC(c6cccc(-c7ccccc7)c6)OC5C(O)C4O)C(O)C3O)cc2)NC1=O (centres unmarked) [Example 154]"
readout_name = "MIC Enterococcus faecium (GC 2243)"
numeric_result = 2

[[record]]
compound = "CC(c1ccccc1)C1NC(=O)CNC(=O)C(CO)NC(=O)C(C(O)C2CNC(=N)N2C2OC(CO)C(O)C(O)C2O)NC(=O)C(C(O)C2CNC(=N)N2)NC(=O)C(Cc2ccc3oc(SCc4ccc(-c5ccccc5)cc4)nc3c2)NC1=O (centres unmarked) [Example 47]"
readout_name = "MIC Enterococcus faecium (GC 2243)"
numeric_result = 4


Query (compound): CC(c1ccccc1)C1NC(=O)CNC(=O)C(CO)NC(=O)C(C(O)C2CNC(=N)N2C2OC(CO)C(O)C(O)C2O)NC(=O)C(C(O)C2CNC(=N)N2)NC(=O)C(Cc2ccc3oc(C=C(c4ccccc4)c4ccccc4)nc3c2)NC1=O (centres unmarked) [Example 39] ; field requested: MIC Enterococcus faecium (GC 2243)
8

Now the compound CC(c1ccccc1)C1NC(=O)CNC(=O)C(CO)NC(=O)C(C(O)C2CNC(=N)N2C2OC(CO)C(O)C(O)C2O)NC(=O)C(C(O)C2CNC(=N)N2)NC(=O)C(Cc2ccc3oc(-c4ccc(OCc5ccccc5)cc4)nc3c2)NC1=O (centres unmarked) [Example 31]
32

Now the compound N=C1NCC(C(O)C2NC(=O)C(CC3CCCCC3)NC(=O)C(CC3CCCCC3)NC(=O)CNC(=O)C(CO)NC(=O)C(C(O)C3CNC(=N)N3C3OC(CO)C(O)C(O)C3O)NC2=O)N1 (stereo not drawn) [Example 52] (cyclo(G[Cha][Cha][ξEnduracididine(βξ-OH,4'ξ)][X1]S); configuration not given here)
16

Origin of measurements: patent US8247211B2
